# IC50 values compiled below
- target.entity: Estrogen Receptor Alpha Ligand binding domain (ER alpha-LBD (GST)) (Homo sapiens)
- Sequence (P03372 307-554): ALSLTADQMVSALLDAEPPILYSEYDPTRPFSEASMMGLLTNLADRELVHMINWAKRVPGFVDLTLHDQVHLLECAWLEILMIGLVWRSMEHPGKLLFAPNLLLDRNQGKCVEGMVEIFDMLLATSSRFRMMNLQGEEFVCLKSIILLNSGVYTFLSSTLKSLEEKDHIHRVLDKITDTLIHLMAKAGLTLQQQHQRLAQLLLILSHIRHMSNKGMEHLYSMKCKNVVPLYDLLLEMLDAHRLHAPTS
- assay.method.text: ERα Binding Assay (LanthaScreen TR-FRET competition)
- condition.summary: competitive displacement of Fluormone ES2 tracer from recombinant human ER alpha-LBD (residues 307-554), 4 hours at room temperature
- Method: The ability of compounds to bind to isolated Estrogen Receptor Alpha Ligand binding domain (ER alpha-LBD (GST)) was assessed in competition assays using a LanthaScreen™ Time-Resolved Fluorescence Resonance Energy Transfer (TR-FRET) detection end-point. […]

{"molecule": "C[C@@H]1Cc2c([nH]c3ccccc23)[C@@H](c2cnc(N3CCC(OCCN4CCN(c5ccc6c(c5)CN(C5CCC(=O)NC5=O)C6=O)CC4)CC3)nc2)N1CC(C)(C)F (stereo partly shown)", "target.entity": "Estrogen Receptor Alpha Ligand binding domain (ER alpha-LBD (GST)) (Homo sapiens)", "IC50 / nM": 2.1}
{"molecule": "C[C@@H]1Cc2c([nH]c3ccccc23)[C@@H](c2cnc(N3CCC4(CCN(CC5CCN(c6ccc7c(c6)CN(C6CCC(=O)NC6=O)C7=O)CC5)CC4)CC3)nc2)N1CC(C)(C)F (stereo partly shown)", "target.entity": "Estrogen Receptor Alpha Ligand binding domain (ER alpha-LBD (GST)) (Homo sapiens)", "IC50 / nM": 8.7}
{"molecule": "C[C@@H]1Cc2c([nH]c3ccccc23)[C@@H](c2cnc(N3CCC(CN(C)C4CN(CC5CCN(c6ccc7c(c6)CN(C6CCC(=O)NC6=O)C7=O)CC5)C4)CC3)nc2)N1CC(C)(C)F (stereo partly shown)", "target.entity": "Estrogen Receptor Alpha Ligand binding domain (ER alpha-LBD (GST)) (Homo sapiens)", "IC50 / nM": 3}
{"molecule": "COc1cc(N2CCN(CC3CCN(c4ncc([C@@H]5c6[nH]c7ccccc7c6C[C@@H](C)N5CC(C)(C)F)cn4)CC3)CC2)cc2c1C(=O)N(C1CCC(=O)NC1=O)C2 (stereo partly shown)", "target.entity": "Estrogen Receptor Alpha Ligand binding domain (ER alpha-LBD (GST)) (Homo sapiens)", "IC50 / nM": 3.2}

Ref: patent US20220169643A1
